# pKd annotations
- target-or-test-system: Lanosterol 14-alpha demethylase (Homo sapiens)
- procedure-details: Binding affinity to recombinant full length human CYP51 expressed in Escherichia coli incubated for 30 sec using [3H] labelled substrate by HPLC analysis
pKd is defined as minus the log10 of a concentration measured in mol/L.

Completed entries (count: 5):
{"chemical-structure": "O=C(N[C@@H](Cn1ccnc1)c1ccc(-c2ccc(F)cc2)cc1Cl)c1ccc(-c2nnc(-c3cc(Br)cc4ccccc34)o2)cc1", "pKd": 6.33}
{"chemical-structure": "CS(=O)(=O)c1cc(-c2ccccn2)cc(-c2nnc(-c3ccc(C(=O)N[C@@H](Cn4ccnc4)c4ccc(-c5ccc(F)cc5)cc4Cl)cc3)o2)c1", "pKd": 7.70}
{"chemical-structure": "O=C(N[C@@H](Cn1ccnc1)c1ccc(-c2ccc(F)cc2)cc1F)c1ccc(-c2nnc(-c3ccccc3)o2)cc1", "pKd": 7.05}
{"chemical-structure": "O=C(N[C@@H](Cn1ccnc1)c1ccc(-c2ccc(F)cc2)cc1Cl)c1ccc(-c2nnc(-c3cc(F)cc(-c4ccccn4)c3)o2)cc1", "pKd": 6.82}
{"chemical-structure": "CS(=O)(=O)c1cc(Br)cc(-c2nnc(-c3ccc(C(=O)N[C@@H](Cn4ccnc4)c4ccc(-c5ccc(F)cc5)cc4Cl)cc3)o2)c1", "pKd": 6.89}

Next:
## Input Give its pKd value. Item: O=C(N[C@@H](Cn1ccnc1)c1ccc(-c2ccc(F)cc2)cc1Cl)c1ccc(-c2nnc(-c3cc(F)cc(-c4ncncc4F)c3)o2)cc1
## Output 7.05

---

- procedure-details: Lipophilicity, logP of compound
- Format: physicochemical
- setup-conditions: octanol/water; read-out: logP
readout-kind: logP
The response must contain the number and no unit.

Completed entries (count: 2):
{"chemical-structure": "CS(=O)(=O)c1cc(Br)cc(-c2nnc(-c3ccc(C(=O)N[C@@H](Cn4ccnc4)c4ccc(-c5ccc(F)cc5)cc4Cl)cc3)o2)c1", "val": 5.4}
{"chemical-structure": "O=C(N[C@@H](Cn1ccnc1)c1ccc(-c2ccc(F)cc2)cc1Cl)c1ccc(-c2nnc(-c3cc(Br)cc4ccccc34)o2)cc1", "val": 7.7}

Next:
## Input Give its logP value. Item: O=C(N[C@@H](Cn1ccnc1)c1ccc(-c2ccc(F)cc2)cc1-c1ccco1)c1ccc(-c2nnc(-c3ccccc3)o2)cc1
## Output 5.8

---

# pIC50 annotations
- target-or-test-system: UniProt:Q16850
- Sequence (Q16850 whole entry): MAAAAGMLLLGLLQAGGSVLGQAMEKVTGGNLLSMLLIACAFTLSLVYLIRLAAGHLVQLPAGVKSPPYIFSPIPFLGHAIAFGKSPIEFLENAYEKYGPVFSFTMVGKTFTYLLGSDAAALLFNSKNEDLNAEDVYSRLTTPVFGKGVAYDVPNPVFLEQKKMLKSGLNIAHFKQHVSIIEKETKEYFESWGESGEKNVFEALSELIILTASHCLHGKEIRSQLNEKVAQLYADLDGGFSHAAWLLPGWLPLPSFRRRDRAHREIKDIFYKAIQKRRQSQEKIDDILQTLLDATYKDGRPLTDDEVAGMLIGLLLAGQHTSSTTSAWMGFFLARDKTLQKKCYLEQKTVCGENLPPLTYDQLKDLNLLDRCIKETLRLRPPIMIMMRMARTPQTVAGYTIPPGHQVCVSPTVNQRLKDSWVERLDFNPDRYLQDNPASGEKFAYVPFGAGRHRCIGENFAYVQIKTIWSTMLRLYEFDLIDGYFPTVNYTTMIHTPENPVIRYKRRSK
- procedure-details: Inhibition of recombinant full length human CYP51 expressed in Escherichia coli incubated for 1 hr using [3H] lanosterol as substrate by HPLC analysis
pIC50: −log10 of the molar value.

Completed entries (count: 5):
{"chemical-structure": "COc1ccc(-c2cc(-c3ccc(F)cc3)ccc2[C@H](Cn2ccnc2)NC(=O)c2ccc(-c3nnc(-c4ccccc4)o3)cc2)cc1", "pIC50": "< 4.60"}
{"chemical-structure": "O=C(N[C@@H](Cn1ccnc1)c1ccc(-c2ccc(F)cc2)cc1-c1ccco1)c1ccc(-c2nnc(-c3ccccc3)o2)cc1", "pIC50": "< 4.60"}
{"chemical-structure": "O=C(N[C@@H](Cn1ccnc1)c1ccc(-c2ccc(F)cc2)cc1Cl)c1ccc(-c2nnc(-c3cc(F)cc(-c4ncncc4F)c3)o2)cc1", "pIC50": "> 6.00"}
{"chemical-structure": "O=C(N[C@@H](Cn1ccnc1)c1ccc(-c2ccc(F)cc2)cc1-c1ccccc1)c1ccc(-c2nnc(-c3ccccc3)o2)cc1", "pIC50": "< 4.60"}
{"chemical-structure": "O=C(N[C@@H](Cn1ccnc1)c1ccc(-c2ccc(F)cc2)c2ccccc12)c1ccc(-c2nnc(-c3ccccc3)o2)cc1", "pIC50": "< 4.60"}

## Input Give its pIC50 value. Item: O=C(N[C@@H](Cn1ccnc1)c1ccc(-c2ccc(F)cc2)cc1Cl)c1ccc(-c2nnc(-c3cc(F)cc(-c4ccccn4)c3)o2)cc1
## Output > 6.00
